These data points were gathered from paper PMC10935061.

assay system: Nur77 (Homo sapiens, UniProt P22736)
Sequence (P22736 360-598 limits assumed): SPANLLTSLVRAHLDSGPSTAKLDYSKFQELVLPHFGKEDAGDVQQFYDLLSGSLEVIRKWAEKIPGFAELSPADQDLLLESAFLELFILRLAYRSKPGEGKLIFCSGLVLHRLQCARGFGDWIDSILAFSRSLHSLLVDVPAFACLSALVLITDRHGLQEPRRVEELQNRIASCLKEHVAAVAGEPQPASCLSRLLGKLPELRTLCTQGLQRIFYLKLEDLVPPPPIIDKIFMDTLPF
readout name: Kd
The answer consists of two parts: a number and, after it, its unit.

Quick check: Kd of CCCCCCCC(=O)c1cc(OC)c(OC)c(OC)c1CC(=O)OCC ?
380 nM
